The compounds listed here are annotated with their TGI.
System: HCT-15 colon
Experiment: NCI tumour cell line growth inhibition, 48 h
State just the number; it will be interpreted in µM.

Quick one: TGI for CC(=O)NC(CCc1ccc(Cl)c(Cl)c1)c1cccc(O)c(=O)c1 (stereo not given) ? 19.6

I have this compound here, `C=C1C(=O)O[C@H]2C(=O)[C@H](C)CCC/C(C)=C/CC[C@@]3(C)O[C@@H]3C[C@@H]12` , and I need its recorded TGI. 3.12

Name the reported TGI value associated with the compound `N#C/C(=C\c1ccc(O)c(O)c1)C(=O)NCc1cccc(C(F)(F)F)c1` 46.3

Reported TGI for `Cc1ccc(/C=C(/C#N)n2nnc3cccc(F)c32)cc1` : what is it? 8.69
